assayName: in vivo
studyConditions: rat, po, male SD rats, peroral, 20% solution in sesame oil, read-out: LD50 male
measuredQuantity: LD50

Ask: Could you please provide reported LD50 for COc1ccc2c(c1)c(CC(=O)OCC=C(C)CCC=C(C)CCC=C(C)CCC=C(C)C)c(C)n2C(=O)c1ccc(Cl)cc1 ? Thanks!
Reply: 2000 to 2520 mg/kg

====

assayName: in vivo
studyConditions: rat, po, female SD rats, peroral, 20% solution in sesame oil, read-out: LD50 female
measuredQuantity: LD50

Ask: Item COc1ccc2c(c1)c(CC(=O)OCC=C(C)CCC=C(C)CCC=C(C)CCC=C(C)C)c(C)n2C(=O)c1ccc(Cl)cc1 : provide LD50
Reply: 1530 to 3160 mg/kg
